B1: MFF (parent)
chain: YTEGISQRMRVPEKLKVAPPNADL

Variants of: B1
Test: protein stability index of a GFP-peptide fusion (GPS, HEK-293T) (PSI 1-6); higher = more stable;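 note: lentivirally expressed fusions sorted by FACS into six bins by GFP to DsRed ratio, PSI derived from sequencing read proportions per bin multiplied by bin number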
Conditions: c terminus: a fixed tail appended
RESULT TYPE: protein stability index

{"MUT": "I5Q", "RESULT TYPE": "protein stability index", "MEAS VALUE": 4.44}
{"MUT": "P20M", "RESULT TYPE": "protein stability index", "MEAS VALUE": 2.66}
{"MUT": "R10A", "RESULT TYPE": "protein stability index", "MEAS VALUE": 2.17}
{"MUT": "V17F", "RESULT TYPE": "protein stability index", "MEAS VALUE": 2.6}
{"MUT": "D23E", "RESULT TYPE": "protein stability index", "MEAS VALUE": 2.36}
{"MUT": "E13I", "RESULT TYPE": "protein stability index", "MEAS VALUE": 2.49}
{"MUT": "R8P", "RESULT TYPE": "protein stability index", "MEAS VALUE": 2.81}
{"MUT": "P12H", "RESULT TYPE": "protein stability index", "MEAS VALUE": 2.77}
{"MUT": "P12G", "RESULT TYPE": "protein stability index", "MEAS VALUE": 2.46}
{"MUT": "N21I", "RESULT TYPE": "protein stability index", "MEAS VALUE": 2.34}
{"MUT": "Q7F", "RESULT TYPE": "protein stability index", "MEAS VALUE": 1.82}
{"MUT": "R8N", "RESULT TYPE": "protein stability index", "MEAS VALUE": 3.18}
{"MUT": "G4H", "RESULT TYPE": "protein stability index", "MEAS VALUE": 3.46}
{"MUT": "R8L", "RESULT TYPE": "protein stability index", "MEAS VALUE": 2.2}
{"MUT": "S6Q", "RESULT TYPE": "protein stability index", "MEAS VALUE": 2.71}
{"MUT": "P19C", "RESULT TYPE": "protein stability index", "MEAS VALUE": 3.25}
{"MUT": "L15Q", "RESULT TYPE": "protein stability index", "MEAS VALUE": 3.06}
{"MUT": "K16P", "RESULT TYPE": "protein stability index", "MEAS VALUE": 2.83}
{"MUT": "Y1K", "RESULT TYPE": "protein stability index", "MEAS VALUE": 4.27}
{"MUT": "K14W", "RESULT TYPE": "protein stability index", "MEAS VALUE": 2.11}
{"MUT": "A22N", "RESULT TYPE": "protein stability index", "MEAS VALUE": 2.92}
{"MUT": "P20C", "RESULT TYPE": "protein stability index", "MEAS VALUE": 2.44}
